- subject of test: T1, CRBN, Q96SW2
- T1 chain: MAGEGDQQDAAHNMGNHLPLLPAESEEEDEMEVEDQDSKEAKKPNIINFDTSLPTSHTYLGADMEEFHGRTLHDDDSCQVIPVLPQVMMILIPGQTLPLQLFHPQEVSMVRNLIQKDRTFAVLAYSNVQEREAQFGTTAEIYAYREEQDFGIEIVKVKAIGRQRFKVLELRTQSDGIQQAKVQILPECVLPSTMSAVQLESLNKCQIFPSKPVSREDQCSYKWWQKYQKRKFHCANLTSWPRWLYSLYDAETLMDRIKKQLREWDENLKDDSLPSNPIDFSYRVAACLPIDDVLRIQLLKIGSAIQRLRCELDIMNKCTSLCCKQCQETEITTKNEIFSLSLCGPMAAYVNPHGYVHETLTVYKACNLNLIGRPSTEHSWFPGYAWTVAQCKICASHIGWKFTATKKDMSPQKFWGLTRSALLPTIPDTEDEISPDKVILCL
- protocol description: log2 fold change of degron read counts, EGFP-low vs EGFP+ sorted cells (limma voom), compound-induced degradation; higher = more compound-induced degradation of the degron-EGFP fusion; degrons are variants of IKZF1/3 zinc finger 2; compound dose not given here;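 further: pooled lentiviral library of zinc finger degron-EGFP fusions in mCherry-positive Jurkat cells, FACS-sorted after compound exposure, with degron abundance counted by next-generation sequencing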
- condition info: Jurkat; 18 h; compound: thalidomide
In all, about 8,300 sequences were measured (“log2 fold change of degron read counts, EGFP-low vs EGFP+ sorted cells (limma voom), compound-induced degradation”: median about -1.1, highest 2% from about 3.2 on). Shown is part of a subset that was picked to be rich in the highest values.
# binarize log2 fold change of degron read counts: threshold 2 inclusive, high side met, low side not met

Check out these entries, answers already filled in.
1) FICEVCGAQFTQKGNLLRHIKL [46F_47I_49E_50V_52G_53A_54Q_55F_67L_, Q9UKT9] : met
2) FTCPICGHLFTQKGNLLRHIKL [46F_47T_49P_50I_52G_53H_54L_55F_67L_, Q9UKT9] : not met
3) FYCEVCGAQFTQKGNLLRHIKL [46F_47Y_49E_50V_52G_53A_54Q_55F_67L_, Q9UKT9] : not met
4) FVCEVCGAQFTQKGNLLRHIKL [46F_47V_49E_50V_52G_53A_54Q_55F_67L_, Q9UKT9] : met
5) FMCSVCGHPFTQKGNLLRHIKL [46F_47M_49S_50V_52G_53H_54P_55F_67L_, Q9UKT9] : not met

--- query ---
Incoming: Say whether FSCEVCGAQFTQKGNLLRHIKL [46F_47S_49E_50V_52G_53A_54Q_55F_67L_, Q9UKT9] shows log2 fold change of degron read counts of 2 or more.
Outgoing: not met
